Kindly state pEC50 for each of the entries shown.
# Tested on: HIV-1 (NL4-3 strain)
# Protocol: Protection against HIV-1 (NL4-3 strain)-induced cytopathogenicity in MT-4 cells, MTT assay
# Format: cell-based
# Condition Info: Table 3; 50% protection from HIV-1 (NL4-3 strain)-induced cytopathogenicity in MT-4 cells
One number for each entry, as −log10 of the molar value.

>  <Molecule>
CSCCC(C(=O)N1CCNCC1c1c[nH]c2ccccc12)N1CCCN(C(C)C)CC1 (centres unmarked) [TKB063B (25B)]

>  <System>
HIV-1 (NL4-3 strain)

>  <pEC50>
5.13

$$$$

Let's switch to this molecule now.
Query: Give the measured pEC50 of Cc1cn([C@H]2C[C@H](N=[N+]=[N-])[C@@H](CO)O2)c(=O)[nH]c1=O [AZT, reference compound] .
Result: 7.60

* * *

Kindly state CC50 at 5 days for each of the entries shown.
# Protocol: Cytotoxicity: reduction of the viability of MT-4 cells, MTT assay
# Assay type: cell-based
# Condition Info: human; Table 2; 50% reduction of the viability of MT-4 cells; read-out: CC50

List the reported CC50 at 5 days of each molecule below.
1. CCCCCCCC(=O)N1CCCN([C@H](CCSC)C(=O)N2CCNCC2c2c[nH]c3ccccc23)CC1 (some centres unmarked)
2. CSCC[C@H](C(=O)N1CCNCC1c1c[nH]c2ccccc12)N1CCCN(Cc2ccccc2)CC1 (some centres unmarked)
3. CSCC[C@H](C(=O)N1CCNCC1c1c[nH]c2ccccc12)N1CCCN(C(C)C)CC1 (some centres unmarked)

Result:
["8.8 µM", "9 µM", "> 50 µM"]

* * *

# Protocol: Cytotoxicity: reduction of the viability of MT-4 cells, MTT assay
# Type: cell-based
# Condition Info: human; Table 2; 50% reduction of the viability of MT-4 cells; read-out: CC50
Test Readout: CC50 at 5 days

Completed entries (count: 4):
>  <Compound>
CSCC[C@H](C)OC(=O)[C@@H](N)c1ccccc1-c1c[nH]c2ccccc12 [MKN-1 (1), reference compound]

>  <CC50 at 5 days>
15 µM

$$$$
>  <Compound>
CCCCCCCN1CCCN([C@H](CCSC)C(=O)N2CCNCC2c2c[nH]c3ccccc23)CC1 (some centres unmarked) [Compound 26]

>  <CC50 at 5 days>
4.4 µM

$$$$
>  <Compound>
CSCCC(C(=O)N1CCNCC1c1c[nH]c2ccccc12)N1CCCNCC1 (centres unmarked) [MKN-3 (2)]

>  <CC50 at 5 days>
> 50 µM

$$$$
>  <Compound>
CSCC[C@H](C(=O)N1CCNCC1c1c[nH]c2ccccc12)N1CCCCCC1 (some centres unmarked) [Compound 29]

>  <CC50 at 5 days>
32 µM

$$$$

Query: Give the measured CC50 at 5 days of CCCC(CCC)C(=O)N1CCCN([C@H](CCSC)C(=O)N2CCNCC2c2c[nH]c3ccccc23)CC1 (some centres unmarked) [Compound 18] .
Result: 9.1 µM
